Reference source: patent US8551921B2

Test system: ObanF
Details: Microbial Toxic Concentration; incubation time 16 h
Counter-ions that a name gives are not always drawn.
If the reported Toxic fingerprint: MTC value for microorganism no. 9 equals or exceeds 2, assign TRUE. If not, assign FALSE.

INSERT INTO results (molecule, assigned_class) VALUES
  ('O=[N+]([O-])[O-].O=[N+]([O-])[O-].[Ba+2] [Barium nitrate]', 'FALSE'),
  ('COc1ccc(CCN(C)CCCC(C#N)(c2ccc(OC)c(OC)c2)C(C)C)cc1OC (stereo not drawn) [Verapamil HCl]', 'FALSE'),
  ('[Cl-].[K+] [Potassium Chloride]', 'TRUE'),
  ('C[C@H]1O[C@@H](O[C@H]2[C@@H](O)C[C@H](O[C@H]3[C@@H](O)C[C@H](O[C@H]4CC[C@@]5(C)[C@H](CC[C@@H]6[C@@H]5C[C@@H](O)[C@]5(C)[C@@H](C7=CC(=O)OC7)CC[C@]65O)C4)O[C@@H]3C)O[C@@H]2C)C[C@H](O)[C@@H]1O', 'FALSE'),
  ('[Cl-].[Cl-].[Mg+2] [Magnesium Chloride]', 'TRUE');
